targetEntity: T1, human claudin 6 (CLDN6) (human, UniProt P56747 1-220)
T1 construct: also called human CLDN6; hCLDN6
T1 sequence: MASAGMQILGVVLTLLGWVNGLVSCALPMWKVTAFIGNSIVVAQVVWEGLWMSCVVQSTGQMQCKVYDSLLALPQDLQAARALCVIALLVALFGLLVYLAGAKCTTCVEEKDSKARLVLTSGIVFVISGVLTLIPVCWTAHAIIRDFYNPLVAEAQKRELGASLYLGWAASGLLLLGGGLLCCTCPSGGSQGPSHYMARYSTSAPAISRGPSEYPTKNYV
assayName: flow cytometry, PA-1 cells; ratio to chBG87P
Procedure: For affinity determination, CLDN6 over-expressing HEK293T cells and cancer cell line PA-1 which express high levels of human CLDN6 were used to evaluate the binding activity of BG87P related engineering variants. […] EC50 values for dose-dependent binding to CLDN6 expressing cell lines were determined by fitting the dose-response data to the four-parameter logistic model with GraphPad Prism. […]
Emax ratio to BG87P reference
Keep the answer to the number alone.

- binder: "BG87P-25 (antibody, V domains shown) VH: QIQLVQSGAEVKKPGASVKVSCKASGYSFTDYHINWVRQAPGQRLEWMGWIYPGSGYTKYNEKFKGRVTLTRDTSASTAYMELSSLRSEDTAVYYCARSGIYHYVSSYYFDHWGKGTTVTVSS VL: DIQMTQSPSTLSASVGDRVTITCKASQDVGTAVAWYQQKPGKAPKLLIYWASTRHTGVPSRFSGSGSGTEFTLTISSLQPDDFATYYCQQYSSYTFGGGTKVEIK"
  observedResult: 0.59
- binder: "BG87P-24 (antibody, V domains shown) VH: QVQLVQSGAEVKKPGASVKVSCKASGYSFTDYHINWVRQAPGQRLEWMGWIYPGSGYTKYNEKFKGRVTLTRDTSASTAYMELSSLRSEDTAVYYCARSGIYHYVSSYYFDHWGKGTTVTVSS VL: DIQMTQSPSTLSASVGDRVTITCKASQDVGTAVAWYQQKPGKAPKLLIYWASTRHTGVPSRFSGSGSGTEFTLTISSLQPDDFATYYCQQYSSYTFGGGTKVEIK"
  observedResult: 0.5

Then there is this binder:
Find the recorded Emax ratio to BG87P belonging to anti-CLDN6 chimeric BG87P (antibody, V domains shown, expressed in HEK293T; also called chBG87P; ChBG87P) VH: QIQLQQSGPELVKPGASVKISCKASGYSFTDYHINWVKQRPGQGLEWIGWIYPGSGYTKYNEKFKVKATLTVDTSSSTAYMHLTSLTSEDSAVYFCARSGIYHYVSSYYFDHWGQGTTLTVSS VL: DIVMTQSHTFMSTSVGDRVSITCKASQDVGTAVAWYQQKPGQSPKLLIYWASTRHTGVPDRFTGSGSGTDFTLTISNVQSEDLADYFCQQYSSYTFGGGTKLEIK and report it.
1

Measured values drawn from patent US20240301061A1 for this set.
